Could you please report measured MFI for the items listed next?
biological target: T1, human BLyS (full length, arginine to histidine at position 132) on CHO-K1 cells (human, UniProt Q9Y275 1-285); assay: flow cytometry, CHO-K1 hBLyS cells, antibody 0.0213 nM
T1 construct: also called hBLyS; CHO-K1 hBLyS
T1 sequence (Q9Y275 whole entry R130H): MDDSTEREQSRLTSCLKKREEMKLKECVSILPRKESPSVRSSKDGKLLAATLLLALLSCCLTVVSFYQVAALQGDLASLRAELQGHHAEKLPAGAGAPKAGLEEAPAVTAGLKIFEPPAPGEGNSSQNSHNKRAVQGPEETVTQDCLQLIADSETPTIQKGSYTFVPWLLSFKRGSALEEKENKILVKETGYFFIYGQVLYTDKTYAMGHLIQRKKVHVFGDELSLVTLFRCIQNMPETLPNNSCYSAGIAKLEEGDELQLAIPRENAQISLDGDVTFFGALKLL
Expressed in MFI, but write only the number.

Lookup: Reported MFI, binder 97E7B3F2 (antibody, V domains shown, Mouse hybridoma monoclonal antibody purified on Protein G) VH: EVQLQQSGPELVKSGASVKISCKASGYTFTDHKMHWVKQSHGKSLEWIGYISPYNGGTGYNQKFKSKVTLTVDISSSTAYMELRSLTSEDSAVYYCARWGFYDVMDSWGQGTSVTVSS VL: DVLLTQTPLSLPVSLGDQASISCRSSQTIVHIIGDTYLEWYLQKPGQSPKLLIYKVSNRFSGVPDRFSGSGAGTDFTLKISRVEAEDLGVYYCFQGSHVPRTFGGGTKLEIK : ____
Found: 78.7

Lookup: Next entry: L9G7 (antibody, V domains shown, From a human naive scFv phage library; also called human BLyS antibody L9G7) VH: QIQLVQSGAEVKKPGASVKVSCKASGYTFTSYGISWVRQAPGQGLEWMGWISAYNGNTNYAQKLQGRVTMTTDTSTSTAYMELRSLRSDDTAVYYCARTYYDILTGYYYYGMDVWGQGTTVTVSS VL: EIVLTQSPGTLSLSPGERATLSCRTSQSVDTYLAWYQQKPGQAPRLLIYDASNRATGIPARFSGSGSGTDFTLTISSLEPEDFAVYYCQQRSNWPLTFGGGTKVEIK
Found: 93

Lookup: Next entry: 89A2G5E7 (antibody, V domains shown, Mouse hybridoma monoclonal antibody purified on Protein G) VH: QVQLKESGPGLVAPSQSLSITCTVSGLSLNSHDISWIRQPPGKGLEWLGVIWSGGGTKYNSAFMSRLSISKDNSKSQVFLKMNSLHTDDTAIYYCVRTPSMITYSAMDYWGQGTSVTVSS VL: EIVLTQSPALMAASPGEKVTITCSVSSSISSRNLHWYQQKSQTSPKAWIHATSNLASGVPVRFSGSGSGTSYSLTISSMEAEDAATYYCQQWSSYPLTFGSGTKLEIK
Found: 48.1

Lookup: Next entry: 97A3C2H4 (antibody, V domains shown, Mouse hybridoma monoclonal antibody purified on Protein G) VH: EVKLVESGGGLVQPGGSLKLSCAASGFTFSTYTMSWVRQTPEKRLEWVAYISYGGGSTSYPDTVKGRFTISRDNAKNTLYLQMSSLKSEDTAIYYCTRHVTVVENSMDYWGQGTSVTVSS VL: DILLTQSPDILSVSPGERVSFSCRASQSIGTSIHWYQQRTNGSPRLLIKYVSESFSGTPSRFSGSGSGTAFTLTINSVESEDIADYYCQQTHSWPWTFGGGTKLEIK
Found: 69.8

Lookup: Next entry: 67A2E1D10 (antibody, V domains shown, Mouse hybridoma monoclonal antibody purified on Protein G) VH: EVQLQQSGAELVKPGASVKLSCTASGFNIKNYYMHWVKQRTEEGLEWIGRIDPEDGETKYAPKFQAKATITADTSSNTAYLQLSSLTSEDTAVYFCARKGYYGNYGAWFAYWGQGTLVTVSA VL: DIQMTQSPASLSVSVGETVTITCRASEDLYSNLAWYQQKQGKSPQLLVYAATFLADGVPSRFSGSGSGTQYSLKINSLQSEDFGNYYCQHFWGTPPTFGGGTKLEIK
Found: 37.1

Lookup: Next entry: 35E6F7C3 (antibody, V domains shown, Mouse hybridoma monoclonal antibody purified on Protein G) VH: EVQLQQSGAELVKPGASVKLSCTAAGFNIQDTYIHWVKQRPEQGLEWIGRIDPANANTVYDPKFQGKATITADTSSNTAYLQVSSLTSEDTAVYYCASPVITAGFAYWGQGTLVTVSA VL: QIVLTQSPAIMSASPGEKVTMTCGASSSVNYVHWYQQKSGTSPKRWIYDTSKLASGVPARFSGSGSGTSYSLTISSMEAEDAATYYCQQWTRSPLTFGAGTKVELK
Found: 54.9

Lookup: Next entry: 93C6F10D3 (antibody, V domains shown, Mouse hybridoma monoclonal antibody purified on Protein G) VH: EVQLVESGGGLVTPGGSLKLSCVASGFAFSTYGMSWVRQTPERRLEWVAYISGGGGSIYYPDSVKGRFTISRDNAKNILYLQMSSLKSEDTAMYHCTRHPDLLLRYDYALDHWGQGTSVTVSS VL: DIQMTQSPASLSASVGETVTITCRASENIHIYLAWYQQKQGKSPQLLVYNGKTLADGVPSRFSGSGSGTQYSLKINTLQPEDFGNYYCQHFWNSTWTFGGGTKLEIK
Found: 76.6

This collection of values is drawn from patent US20210347873A1.
